Data origin: PubChem BioAssay (NCATS)

# experiment: HPAF-II Cancer Cell Toxicity qHTS against the NCATS CANVASS Library (AID 1347346); also: nearly all actives have a fitted effect of over 55% in size
# condition-label: HPAF-II viability, CellTiter-Glo ATP luminescence, 72 h; series mostly up to 38.3 µM
# From the text: Natural products and their derivatives continue to be wellsprings of nascent therapeutic potential. […] To address this issue, the Canvass library of natural products was assembled (https://tripod.nih.gov/canvass), in collaboration with academic and industry researchers, for quantitative high-throughput screening (qHTS) across a diverse set of cell-based and biochemical assays. […]
Records with an inconclusive call do not appear. Activity calls are given as the source filed them. Calls follow the shape of the dose curve; as a rule, active = well fitted cell-killing curve with a large enough effect; inconclusive = small, poorly fitted or top-dose-only effect; inactive = flat fitted curve, though single readings scatter.
Respond with a class label; see active, inactive

Here are 4 compounds together with their reported answers.
compound: CCCC[C@@H]1CC[C@H]2CCCC(CCC)N12 (stereo not given in full)
class-assignment: inactive
//
compound: CC1=CC(=O)C2=C(C)C[C@H](O)[C@@H]3[C@H](OC(=O)[C@@H]3C)[C@@H]12
class-assignment: inactive
//
compound: CCC(=O)CCCCC[C@@H]1NC(=O)[C@H]2CCCCN2C(=O)[C@H]([C@@H](C)CC)NC(=O)[C@H](Cc2cn(OC)c3ccccc23)NC1=O
class-assignment: active
//
compound: CN1C(=O)[C@]23CC4C(C)(C)[C@@]5(C[C@@]41CN2CC[C@@]3(C)O)C(=O)Nc1c5ccc2c1OC=CC(C)(C)O2 (stereo not given in full)
class-assignment: inactive

Exam item: So what was the verdict on CC=C1CN(C=O)[C@H]2C[C@@H]1[C@@H](C(=O)OC)[C@@]13CCOC21Nc1ccccc13 (stereo not given in full) in this test?
Marked response: inactive

Exam item: Another compound to check: COC(=O)C1=C2Nc3ccccc3[C@@]23CCN2CC(C(C)=O)C1C[C@H]23 (stereo not given in full)
Marked response: active

Exam item: Another compound to check: CC1=CC2CC[C@@H]3[C@@H](C)C[C@H](C)[C@@H](C1)N23 (stereo not given in full)
Marked response: inactive

Exam item: Another compound to check: "CO[C@@H](/C=C/CC/C=C/C(=O)O)[C@@H](O)[C@H](C)/C=C(\C)[C@@H](O)[C@H](C)C(=O)CCCC1CC(=O)NC(=O)C1"
Marked response: inactive

Exam item: Another compound to check: "CNCCc1c[nH]c2ccccc12"
Marked response: inactive

Exam item: Another compound to check: "O=C(c1ccccc1O)c1[nH]c(Cl)c(Cl)c1-n1c(C(=O)c2ccccc2O)cc(Cl)c1Cl"
Marked response: active

Exam item: Another compound to check: "CCC[C@H]1CC[C@H]2[C@H](C)CCC[C@H]2N1"
Marked response: inactive

Exam item: Another compound to check: "NCCc1ccccc1"
Marked response: inactive

Exam item: Another compound to check: "CC[C@@H]1CN2CC[C@@]3(O)C(=Nc4cccc(OC)c43)[C@@H]2C[C@@H]1/C(=C\OC)C(=O)OC"
Marked response: inactive

Exam item: Another compound to check: "CNCCc1ccccc1"
Marked response: inactive

Exam item: Another compound to check: CCN1C[C@]2(C)CC[C@H](O)[C@]34C1C(C[C@H]23)[C@@]12CC[C@H](CC14)[C@](O)(COC(=O)c1ccc(OC)c(OC)c1)[C@H]2O (stereo not given in full)
Marked response: inactive
